The following molecules have recorded pIC50 on fungal (fACC2) ACC2 (UniProt Q00955).
Sequence (Q00955 whole entry): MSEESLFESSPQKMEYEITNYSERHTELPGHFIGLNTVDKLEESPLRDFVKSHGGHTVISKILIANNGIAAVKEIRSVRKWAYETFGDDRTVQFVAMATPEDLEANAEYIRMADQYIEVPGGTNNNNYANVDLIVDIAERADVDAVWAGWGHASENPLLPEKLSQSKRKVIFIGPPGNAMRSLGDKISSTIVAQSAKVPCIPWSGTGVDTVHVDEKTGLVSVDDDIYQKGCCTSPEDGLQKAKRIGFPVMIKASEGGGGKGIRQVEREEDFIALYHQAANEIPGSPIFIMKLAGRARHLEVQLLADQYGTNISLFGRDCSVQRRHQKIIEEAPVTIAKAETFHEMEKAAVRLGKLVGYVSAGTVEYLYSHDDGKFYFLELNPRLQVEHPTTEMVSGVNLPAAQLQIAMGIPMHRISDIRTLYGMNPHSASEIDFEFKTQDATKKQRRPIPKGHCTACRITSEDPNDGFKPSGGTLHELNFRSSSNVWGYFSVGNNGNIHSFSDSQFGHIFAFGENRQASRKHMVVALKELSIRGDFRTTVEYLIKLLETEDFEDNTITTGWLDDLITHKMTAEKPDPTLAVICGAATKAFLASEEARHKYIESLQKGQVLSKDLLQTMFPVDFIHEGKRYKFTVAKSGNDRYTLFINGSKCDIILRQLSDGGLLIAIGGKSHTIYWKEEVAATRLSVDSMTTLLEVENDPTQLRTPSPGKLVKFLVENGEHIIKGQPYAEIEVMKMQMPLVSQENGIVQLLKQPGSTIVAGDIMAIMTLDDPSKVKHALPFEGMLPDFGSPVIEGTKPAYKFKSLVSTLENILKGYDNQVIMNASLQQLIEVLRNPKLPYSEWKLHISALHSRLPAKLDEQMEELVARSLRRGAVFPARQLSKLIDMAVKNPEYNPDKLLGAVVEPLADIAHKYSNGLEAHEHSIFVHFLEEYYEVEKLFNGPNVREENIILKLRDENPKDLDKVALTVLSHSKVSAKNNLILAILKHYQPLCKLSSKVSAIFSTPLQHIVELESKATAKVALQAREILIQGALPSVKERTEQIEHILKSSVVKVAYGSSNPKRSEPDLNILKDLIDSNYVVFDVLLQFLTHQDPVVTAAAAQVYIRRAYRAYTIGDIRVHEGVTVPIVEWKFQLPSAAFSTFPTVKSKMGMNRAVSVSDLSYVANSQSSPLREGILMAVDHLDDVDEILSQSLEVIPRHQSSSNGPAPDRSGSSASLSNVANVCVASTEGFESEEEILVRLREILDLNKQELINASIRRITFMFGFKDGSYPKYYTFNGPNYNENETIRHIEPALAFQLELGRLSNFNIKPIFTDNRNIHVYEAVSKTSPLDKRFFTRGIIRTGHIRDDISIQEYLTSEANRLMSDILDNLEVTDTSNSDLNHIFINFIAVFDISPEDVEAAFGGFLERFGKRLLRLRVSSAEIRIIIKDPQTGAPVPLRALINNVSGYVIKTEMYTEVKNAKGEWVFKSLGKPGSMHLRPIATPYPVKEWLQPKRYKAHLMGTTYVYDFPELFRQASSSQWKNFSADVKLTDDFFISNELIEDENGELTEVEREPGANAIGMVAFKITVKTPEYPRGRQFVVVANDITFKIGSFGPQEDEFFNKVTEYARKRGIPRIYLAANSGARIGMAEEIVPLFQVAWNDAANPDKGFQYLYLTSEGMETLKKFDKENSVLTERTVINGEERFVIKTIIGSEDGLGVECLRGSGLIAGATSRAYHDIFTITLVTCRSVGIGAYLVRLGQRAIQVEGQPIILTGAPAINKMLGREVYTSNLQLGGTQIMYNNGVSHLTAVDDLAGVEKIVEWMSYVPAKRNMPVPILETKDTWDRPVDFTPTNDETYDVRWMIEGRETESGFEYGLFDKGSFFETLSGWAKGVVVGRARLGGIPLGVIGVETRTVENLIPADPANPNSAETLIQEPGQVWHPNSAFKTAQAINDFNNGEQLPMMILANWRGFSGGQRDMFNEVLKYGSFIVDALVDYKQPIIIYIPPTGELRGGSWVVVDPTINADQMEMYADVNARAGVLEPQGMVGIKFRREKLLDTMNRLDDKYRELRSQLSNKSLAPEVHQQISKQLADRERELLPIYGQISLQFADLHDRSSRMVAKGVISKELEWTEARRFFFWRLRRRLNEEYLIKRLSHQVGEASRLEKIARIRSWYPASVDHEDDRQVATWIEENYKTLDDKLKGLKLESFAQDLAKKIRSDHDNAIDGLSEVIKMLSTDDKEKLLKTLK
pIC50: −log10 of the molar value.
VALUE TYPE: pIC50

[[record]]
smiles_code = "COc1ccc(F)cc1[C@H](Cn1c(=O)n([C@H](C)C(=O)NC(C)C)c(=O)c2c(C)c(-n3cccn3)sc21)OC(C)C"
value_type = "pIC50"
reading = "8.52 to 9.22"

[[record]]
smiles_code = "COc1ccc(F)cc1[C@H](Cn1c(=O)n(C(C)(C)C(=O)N2CCCC2)c(=O)c2c(C)c(-n3cccn3)sc21)OCC(C)(C)O"
value_type = "pIC50"
reading = "8.52 to 9.22"

[[record]]
smiles_code = "COCCO[C@@H](Cn1c(=O)n(C(C)(C)C(=O)NC2CCC2)c(=O)c2c(C)c(-n3cccn3)sc21)c1cc(F)ccc1OC"
value_type = "pIC50"
reading = "8.52 to 9.22"


###

The following compounds have recorded IC50 on human (hACC2) ACC2 (Homo sapiens, UniProt O00763).
Sequence (O00763 whole entry): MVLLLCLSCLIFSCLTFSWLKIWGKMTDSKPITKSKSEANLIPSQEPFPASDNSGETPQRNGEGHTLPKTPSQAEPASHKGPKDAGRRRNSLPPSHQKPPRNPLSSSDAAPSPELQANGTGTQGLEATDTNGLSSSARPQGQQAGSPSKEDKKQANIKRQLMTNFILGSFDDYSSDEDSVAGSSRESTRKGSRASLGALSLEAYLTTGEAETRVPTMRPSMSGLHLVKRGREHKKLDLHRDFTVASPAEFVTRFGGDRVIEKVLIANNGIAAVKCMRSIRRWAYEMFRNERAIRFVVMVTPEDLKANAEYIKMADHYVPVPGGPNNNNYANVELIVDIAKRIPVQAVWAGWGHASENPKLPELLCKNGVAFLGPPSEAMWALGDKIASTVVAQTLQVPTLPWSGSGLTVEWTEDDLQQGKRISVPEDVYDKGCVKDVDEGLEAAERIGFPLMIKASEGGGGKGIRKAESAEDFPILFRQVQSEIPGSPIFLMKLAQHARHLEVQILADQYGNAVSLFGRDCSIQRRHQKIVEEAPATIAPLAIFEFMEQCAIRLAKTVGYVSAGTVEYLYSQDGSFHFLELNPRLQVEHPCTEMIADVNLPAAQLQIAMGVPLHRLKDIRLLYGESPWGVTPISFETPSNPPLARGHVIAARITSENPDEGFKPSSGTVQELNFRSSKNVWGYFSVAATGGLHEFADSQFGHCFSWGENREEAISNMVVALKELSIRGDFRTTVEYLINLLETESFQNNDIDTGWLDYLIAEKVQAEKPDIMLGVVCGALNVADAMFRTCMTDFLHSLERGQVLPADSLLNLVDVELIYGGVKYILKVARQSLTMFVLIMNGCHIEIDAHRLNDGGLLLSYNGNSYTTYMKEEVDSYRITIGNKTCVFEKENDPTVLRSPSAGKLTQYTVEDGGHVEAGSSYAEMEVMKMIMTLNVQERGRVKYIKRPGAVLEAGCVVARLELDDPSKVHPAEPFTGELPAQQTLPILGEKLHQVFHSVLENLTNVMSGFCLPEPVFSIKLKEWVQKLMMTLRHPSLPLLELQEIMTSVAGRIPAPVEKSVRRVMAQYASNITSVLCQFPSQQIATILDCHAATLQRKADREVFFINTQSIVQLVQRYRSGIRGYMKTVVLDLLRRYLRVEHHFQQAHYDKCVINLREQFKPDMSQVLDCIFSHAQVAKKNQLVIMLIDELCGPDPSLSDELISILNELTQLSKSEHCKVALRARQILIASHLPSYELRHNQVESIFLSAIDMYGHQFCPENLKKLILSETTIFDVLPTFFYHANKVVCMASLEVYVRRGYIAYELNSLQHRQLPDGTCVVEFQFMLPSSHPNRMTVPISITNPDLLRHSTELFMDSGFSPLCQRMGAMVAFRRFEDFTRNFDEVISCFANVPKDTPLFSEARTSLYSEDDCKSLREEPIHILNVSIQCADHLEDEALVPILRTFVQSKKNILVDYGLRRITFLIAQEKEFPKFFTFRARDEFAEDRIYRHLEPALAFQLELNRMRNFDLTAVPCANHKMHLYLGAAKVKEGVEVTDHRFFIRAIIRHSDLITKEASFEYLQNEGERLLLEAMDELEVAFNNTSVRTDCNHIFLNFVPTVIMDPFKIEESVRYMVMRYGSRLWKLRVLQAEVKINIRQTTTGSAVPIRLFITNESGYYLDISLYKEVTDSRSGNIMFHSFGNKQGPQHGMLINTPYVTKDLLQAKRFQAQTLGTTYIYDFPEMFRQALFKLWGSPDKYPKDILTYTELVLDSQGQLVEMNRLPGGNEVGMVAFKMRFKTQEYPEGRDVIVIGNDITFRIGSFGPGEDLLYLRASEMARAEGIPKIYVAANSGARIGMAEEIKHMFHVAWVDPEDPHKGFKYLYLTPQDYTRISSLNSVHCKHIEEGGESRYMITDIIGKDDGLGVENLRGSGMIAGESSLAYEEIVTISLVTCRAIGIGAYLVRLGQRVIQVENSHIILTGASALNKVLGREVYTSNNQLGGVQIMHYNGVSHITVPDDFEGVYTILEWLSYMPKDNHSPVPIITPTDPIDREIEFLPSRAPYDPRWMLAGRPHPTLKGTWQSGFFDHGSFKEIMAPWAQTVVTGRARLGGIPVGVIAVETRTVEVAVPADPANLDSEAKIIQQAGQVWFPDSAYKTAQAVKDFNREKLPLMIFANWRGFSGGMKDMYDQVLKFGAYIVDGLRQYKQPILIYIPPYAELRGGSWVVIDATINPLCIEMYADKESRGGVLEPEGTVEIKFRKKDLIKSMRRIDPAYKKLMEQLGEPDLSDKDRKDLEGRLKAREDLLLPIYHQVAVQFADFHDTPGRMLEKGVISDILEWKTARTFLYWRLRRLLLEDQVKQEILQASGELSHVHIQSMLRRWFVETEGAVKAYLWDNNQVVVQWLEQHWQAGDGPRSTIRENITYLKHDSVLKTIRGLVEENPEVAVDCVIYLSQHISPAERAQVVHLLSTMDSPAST
VALUE TYPE: IC50

[[record]]
smiles_code = "COc1ccccc1[C@H](Cn1c(=O)n(C(C)(C)C(=O)O)c(=O)c2c(C)c(-n3cccn3)sc21)OC1CCOCC1"
reading = "10 to 40 nM"

[[record]]
smiles_code = "COCCO[C@@H](Cn1c(=O)n([C@H](C)C(=O)NC(C)C)c(=O)c2c(C)c(-n3cccn3)sc21)c1cc(F)ccc1OC"
reading = "> 40 nM"

[[record]]
smiles_code = "COCCO[C@@H](Cn1c(=O)n(C(C)(C)C(=O)NC2CCCCC2)c(=O)c2c(C)c(-n3cccn3)sc21)c1cc(F)ccc1OC"
reading = "> 40 nM"


###

Tested on: Botrtyis cinerea (Bc)
Assay: Growth inhibition assay of fungal pathogens
Format: cell-based
Details: 48 h, Table 4b, read-out: Concentration at 90% Inhibition Bc
VALUE TYPE: IC90 (µg/mL)

[[record]]
compound = "COc1ccc(F)cc1[C@H](Cn1c(=O)n(C(C)(C)C(N)=O)c(=O)c2c(C)c(-n3cccn3)sc21)OC1CCC(=O)CC1 [Compound I-25]"
inequality_sign = "="
reading = 10

[[record]]
compound = "COc1ccccc1[C@H](Cn1c(=O)n(C(C)(C)C(=O)N2CCCC2)c(=O)c2c(C)c(-n3cccn3)sc21)OC1CCOCC1 [Compound I-12]"
inequality_sign = "="
reading = 10

[[record]]
compound = "COc1ccc(F)cc1[C@H](Cn1c(=O)n(C(C)(C)C(=O)O)c(=O)c2c(C)c(-n3cccn3)sc21)OCCC#N [Compound I-82]"
inequality_sign = "="
reading = 10

[[record]]
compound = "COc1ccc(F)cc1[C@H](Cn1c(=O)n(C(C)(C)C(=O)N2CCCC2)c(=O)c2c(C)c(-n3cccn3)sc21)OCCO [Compound I-36]"
inequality_sign = "="
reading = 10

[[record]]
compound = "COc1ccc(F)cc1[C@H](Cn1c(=O)n(C(C)(C)C(=O)N2CCCC2)c(=O)c2c(C)c(-n3cccn3)sc21)OCC(C)(C)O [Compound I-42]"
inequality_sign = "="
reading = 10

[[record]]
compound = "COCCO[C@@H](Cn1c(=O)n(C(C)(C)C(=O)N2CCCC2)c(=O)c2c(C)c(-n3cccn3)sc21)c1cc(F)ccc1OC [Compound I-44]"
inequality_sign = ">"
reading = 50


###

This section presents compounds with their documented IC90 values.
Tested on: Botrtyis cinerea (Bc)
Test: Growth inhibition assay of fungal pathogens
Assay type: cell-based
Details: 48 h, Table 4b, read-out: Concentration at 90% Inhibition Bc
VALUE TYPE: IC90

[[record]]
compound = "COc1ccc(F)cc1[C@H](Cn1c(=O)n(C(C)(C)C(=O)N2CCCC2)c(=O)c2c(C)c(-n3cccn3)sc21)OC(C)C"
reading = "0.4 µg/mL"

[[record]]
compound = "COc1ccc(F)cc1[C@H](Cn1c(=O)n(C(C)(C)C(=O)NC(C)C)c(=O)c2c(C)c(-n3cccn3)sc21)OC1CCC(=O)CC1"
reading = "0.4 µg/mL"

[[record]]
compound = "COc1ccc(F)cc1[C@H](Cn1c(=O)n(C(C)(C)C(N)=O)c(=O)c2c(C)c(-n3cccn3)sc21)OCCC#N"
reading = "> 50 µg/mL"

[[record]]
compound = "COc1ccc(F)cc1[C@H](Cn1c(=O)n(C(C)(C)C(=O)N2CCCC2)c(=O)c2c(C)c(-n3cccn3)sc21)OC[C@H](C)O"
reading = "10 µg/mL"

[[record]]
compound = "COc1ccccc1[C@H](Cn1c(=O)n(C(C)(C)C(=O)N2CCCCC2)c(=O)c2c(C)c(-n3cccn3)sc21)OCC(C)C"
reading = "2 µg/mL"

[[record]]
compound = "COc1ccc(F)cc1[C@H](Cn1c(=O)n(C(C)(C)C(=O)N2CCCC2)c(=O)c2c(C)c(-n3cccn3)sc21)O[C@H]1CC[C@@H](O)CC1"
reading = "2 µg/mL"

[[record]]
compound = "CCO[C@@H](Cn1c(=O)n(C(C)(C)C(=O)N2CCCC2)c(=O)c2c(C)c(-n3cccn3)sc21)c1cc(F)ccc1OC"
reading = "0.4 µg/mL"

[[record]]
compound = "COCCO[C@@H](Cn1c(=O)n(C(C)(C)C(=O)NC2CCC2)c(=O)c2c(C)c(-n3cccn3)sc21)c1cc(F)ccc1OC"
reading = "2 µg/mL"

[[record]]
compound = "COc1ccc(F)cc1[C@H](Cn1c(=O)n(C(C)C(=O)NC(C)C)c(=O)c2c(C)c(-n3cccn3)sc21)OC(C)C (stereo partly shown)"
reading = "2 µg/mL"

[[record]]
compound = "CCO[C@@H](Cn1c(=O)n(C(C)(C)C(=O)NC(C)C)c(=O)c2c(C)c(-n3cccn3)sc21)c1cc(F)ccc1OC"
reading = "2 µg/mL"

[[record]]
compound = "COc1ccc(F)cc1[C@H](Cn1c(=O)n(C(C)(C)C(=O)N2CCCC2)c(=O)c2c(C)c(-n3cccn3)sc21)OC1CCC(=O)CC1"
reading = "2 µg/mL"

[[record]]
compound = "COc1ccc(F)cc1[C@H](Cn1c(=O)n(C(C)(C)C(=O)NC(C)C)c(=O)c2c(C)c(-n3cccn3)sc21)OCCC#N"
reading = "10 µg/mL"

[[record]]
compound = "COc1ccc(F)cc1[C@H](Cn1c(=O)n(C(C)(C)C(=O)N2CC=CC2)c(=O)c2c(C)c(-n3cccn3)sc21)OC1CCOCC1"
reading = "10 µg/mL"


###

Test system: C. parapsilosis ATCC 22019
Test: Anti-Fungal (Candida) Activity Assay, broth microtiter MIC
Assay type: cell-based
Details: Lodderomyces parapsilosis, ATCC22019; 3 replicates, MIC recorded at 48 h; read-out: MIC C. parapsilosis ATCC 22019
VALUE TYPE: MIC

[[record]]
compound = "COc1ccc(F)cc1[C@H](Cn1c(=O)n([C@@H](C)C(=O)N2CCCC2)c(=O)c2c(C)c(-n3cccn3)sc21)OC(C)C"
reading = "2.1 to 4 µg/mL"

[[record]]
compound = "COc1ccccc1[C@H](Cn1c(=O)n(C(C)(C)C(=O)N2CCCC2)c(=O)c2c(C)c(-n3cccn3)sc21)OC(C)C"
reading = "2.1 to 4 µg/mL"

[[record]]
compound = "COc1ccc(F)cc1[C@H](Cn1c(=O)n(C(C)(C)C(=O)N2CCCC2)c(=O)c2c(C)c(-n3cccn3)sc21)OCCC#N"
reading = "> 4.1 µg/mL"

[[record]]
compound = "COc1ccccc1[C@H](Cn1c(=O)n(C(C)(C)C(=O)N2CCCC2)c(=O)c2c(C)c(-n3cccn3)sc21)OCC(C)C"
reading = "1.1 to 2 µg/mL"

[[record]]
compound = "COc1ccc(F)cc1[C@H](Cn1c(=O)n(C(C)(C)C(=O)N2CCCC2)c(=O)c2c(C)c(-n3cccn3)sc21)OC1CCC(=O)CC1"
reading = "1.1 to 2 µg/mL"

[[record]]
compound = "COCCOc1ccc(F)cc1[C@H](Cn1c(=O)n(C(C)(C)C(=O)N2CCCC2)c(=O)c2c(C)c(-n3cccn3)sc21)OC1CCOCC1"
reading = "1.1 to 2 µg/mL"

[[record]]
compound = "COc1ccc(F)cc1[C@H](Cn1c(=O)n(C(C)(C)C(=O)NC(C)C)c(=O)c2c(C)c(-n3cccn3)sc21)OC(C)C.I"
reading = "2.1 to 4 µg/mL"

[[record]]
compound = "COc1ccc(F)cc1[C@H](Cn1c(=O)n(C(C)C(=O)O)c(=O)c2c(C)c(-n3cccn3)sc21)OCC(C)=O (stereo partly shown)"
reading = "> 4.1 µg/mL"

[[record]]
compound = "COc1ccc(F)cc1[C@H](Cn1c(=O)n(C(C)C(N)=O)c(=O)c2c(C)c(-n3cccn3)sc21)OCCO (stereo partly shown)"
reading = "> 4.1 µg/mL"

[[record]]
compound = "COCCO[C@@H](Cn1c(=O)n(C(C)C(=O)O)c(=O)c2c(C)c(-n3cccn3)sc21)c1cc(F)ccc1OC (stereo partly shown)"
reading = "> 4.1 µg/mL"

[[record]]
compound = "COCCO[C@@H](Cn1c(=O)n(C(C)(C)C(=O)NC2CCC2)c(=O)c2c(C)c(-n3cccn3)sc21)c1cc(F)ccc1OC"
reading = "0.25 to 1 µg/mL"

[[record]]
compound = "COc1ccccc1[C@H](Cn1c(=O)n(C(C)(C)C(=O)N2CCCC2)c(=O)c2c(C)c(-n3cccn3)sc21)OCCC#N"
reading = "> 4.1 µg/mL"

[[record]]
compound = "COCCOc1ccc(F)cc1[C@H](Cn1c(=O)n(C(C)(C)C(=O)NC(C)C)c(=O)c2c(C)c(-n3cccn3)sc21)OC1CCOCC1"
reading = "> 4.1 µg/mL"


Reference for the values: patent US10941158B2
